Settings: 298.15 K; 101.33 kPa; Liquid; Pycnometric method
Recorded metric: mass density (kg/m3)

CCCO [propan-1-ol] | 799.98
CCO [ethanol] | 785.35
CO [methanol] | 786.57
CC(C)O [propan-2-ol] | 781.35
CCCCO [butan-1-ol] | 805.85
CCC(C)O (stereo unspecified) [butan-2-ol] | 802
